Quick list: percent inhibition of viability per entry.
test system: normal primary NK cells, pool 3 (3 donors) (IL-2 2.5 ng/mL); test: percent inhibition of viability; higher = more inhibition; settings: 72 h; 100 nM;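 further: normalised to DMSO-only wells as negative and benzethonium chloride as positive control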
// note: answer is a bare numeric in %

So what does the record say about percent inhibition of viability for O=C(Cc1ccc(-c2ccc(OCCN3CCOCC3)cc2)cn1)NCc1ccccc1 [KX2-391] (max concentration tested 10000 nM) ?
-0.96

So what does the record say about percent inhibition of viability for Cc1ccccc1C(C(=O)NC1CCCCC1)N(C(=O)Cn1ccnc1C)c1cccc(F)c1 (stereo unspecified) [AGI-5198] (max concentration tested 10000 nM) ?
-0.6

So what does the record say about percent inhibition of viability for CN1CCC(COc2cnc(-c3cccc(Cn4nc(-c5cccc(C#N)c5)ccc4=O)c3)nc2)CC1 (max concentration tested 1000 nM) ?
-16

So what does the record say about percent inhibition of viability for Nc1ccn([C@@H]2O[C@H](CO)[C@@H](O)[C@@H]2O)c(=O)n1 [Cytarabine] (max concentration tested 10000 nM) ?
-9.4

So what does the record say about percent inhibition of viability for Nc1ccccc1NC(=O)c1ccc(CNC(=O)OCc2cccnc2)cc1 [Entinostat] (max concentration tested 10000 nM) ?
-9.76

So what does the record say about percent inhibition of viability for CC[C@H](Nc1ncnc2[nH]cnc12)c1nc2cccc(F)c2c(=O)n1-c1ccccc1 [Idelalisib] (max concentration tested 10000 nM) ?
6.64
